- testedTarget: T1, Human PD-L1 Fc-fusion protein (R&D Systems, 156-B7) (Homo sapiens, UniProt Q9NZQ7)
- T1 construct: programmed death-ligand 1 (PD-L1, B7-H1, CD274), human; also called huPD-L1; B7-H1; source: bought: R&D Systems (156-B7)
- T1 sequence (Q9NZQ7 19-238): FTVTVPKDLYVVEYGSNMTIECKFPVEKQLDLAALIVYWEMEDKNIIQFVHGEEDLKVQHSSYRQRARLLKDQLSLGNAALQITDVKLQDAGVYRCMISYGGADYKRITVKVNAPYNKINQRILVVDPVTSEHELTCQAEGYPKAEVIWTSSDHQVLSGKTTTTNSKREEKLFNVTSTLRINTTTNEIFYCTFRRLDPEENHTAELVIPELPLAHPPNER
- protocolDetails: SPR; Biacore T200, 25°C, HBS (0.01 M HEPES pH 7.4, 0.15 M NaCl, 3 mM EDTA, 0.005% Tween 20); mouse or human PD-L1 Fc-fusion protein amine-coupled on a CM5 chip (650-900 RU); Nb in crude periplasmic extract as analyte, its concentration estimated by CFCA; 9 dilutions, 120 s association, 160 s dissociation; 1-to-1 fit; affinity estimations
- conditionInfo: one partner purified
valueKind: pKd
Here pKd is given on a logarithmic scale as minus log10 of the concentration in mol/L.

1. Nb D1 (HA-tagged, in periplasmic extract) (VHH, source: E. coli WK6 (pHEN4), crude periplasmic extract) VHH: QVQLQESGGGLVQAGGSLRLSCAASGITVSINAMAWYRQPPGKQRELVALIIGGSTRYADSVKGRFTISRDNAKNTVYLQMNSLKPEDTAVYACNTRAYWGQGTQVTVSS	6.54

**Q:** May I ask what pKd has been recorded for Nb G1 (HA-tagged, in periplasmic extract) (VHH, source: E. coli WK6 (pHEN4), crude periplasmic extract) VHH: QVQLQESGGGLVQPGGSLRLSCAASGSISSFNFMGWYRQAPGKQRELVALSTNSGVTNVAGSVKGRFTISRDNAKTTVYLQMNSLKPEDTAVYYCRVGAMGNLYWGQGTQVTVSS ?
**A:** 7.30
